- SYSTEM UNDER TEST: ABCG2 (Homo sapiens)
- Construct: Recombinant ABCG2
- Sequence (Q9UNQ0 1-655): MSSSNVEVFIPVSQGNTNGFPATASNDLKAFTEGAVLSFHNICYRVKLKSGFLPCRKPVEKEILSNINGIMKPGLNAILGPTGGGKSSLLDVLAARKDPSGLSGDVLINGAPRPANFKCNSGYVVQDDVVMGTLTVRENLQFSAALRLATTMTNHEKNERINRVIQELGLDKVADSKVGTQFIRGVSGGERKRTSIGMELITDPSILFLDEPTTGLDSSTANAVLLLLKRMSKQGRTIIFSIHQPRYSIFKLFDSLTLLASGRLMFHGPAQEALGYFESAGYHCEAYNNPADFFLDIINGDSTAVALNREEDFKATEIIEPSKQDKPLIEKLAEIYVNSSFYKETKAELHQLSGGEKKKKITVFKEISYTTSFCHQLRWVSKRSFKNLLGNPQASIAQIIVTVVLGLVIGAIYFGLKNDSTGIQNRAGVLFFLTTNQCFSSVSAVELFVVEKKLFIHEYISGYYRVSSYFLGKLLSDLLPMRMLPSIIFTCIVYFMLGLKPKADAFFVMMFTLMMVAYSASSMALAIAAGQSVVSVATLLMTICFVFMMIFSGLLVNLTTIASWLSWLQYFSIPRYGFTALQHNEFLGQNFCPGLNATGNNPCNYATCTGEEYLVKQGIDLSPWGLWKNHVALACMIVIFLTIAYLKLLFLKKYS

# CPD SMILES, SYSTEM UNDER TEST, Kd / µM
records = [
    ("COc1cc2ccc(=O)oc2c(O[C@@H]2O[C@H](CO)[C@@H](O)[C@H](O)[C@H]2O)c1O", "ABCG2 (Homo sapiens)", 141),
]

Source: paper PMC10708028
